This collection of values is drawn from ChEMBL document CHEMBL1782036.

tested on: OS-RC-2; assay: Antiproliferative activity against human OS-RC2 cells after 72 hrs by MTT assay; type: functional, cell-based; settings: OS-RC-2, 72 h
Property label: pIC50
Numbers only, as −log10 of the molar value.

Some solved entries appear below for comparison.
Dear colleague, I am looking for the recorded pIC50 of the following compound: O=C1C=C(N2CCN(c3ccccc3)CC2)C(=O)c2c(O)ccc(O)c21
5.82

Dear colleague, I am looking for the recorded pIC50 of the following compound: Cc1ccccc1N1CCN(C2=CC(=O)c3cccc(O)c3C2=O)CC1
5.36

Dear colleague, I am looking for the recorded pIC50 of the following compound: COc1cccc2c1C(=O)c1c(O)c3c(c(O)c1C2=O)C[C@@](O)(C(=O)CO)C[C@@H]3O[C@H]1C[C@H](N)[C@H](O)[C@H](C)O1
5.27

Next:
Dear colleague, I am looking for the recorded pIC50 of the following compound: O=C1C=C(N2CCN(c3ccccc3Cl)CC2)C(=O)c2c(O)cccc21
5.60
